# Test system: FLOD-G derived from Gibberella fujikuroi (IFO No. 6605)
# assay-info: Effect of metal ion on the activity of FLOD-G
# Format: biochemical
# assay-context: metal 1 mM
measure-name: Inhibition of FLOD-G activity by metal ion

> print(dat)
            chemical.string     result
1        [Cl][Fe]([Cl])[Cl]  inhibited
2              [Cl][Cu][Cl]  inhibited
3  O=S(=O)([O-])[O-].[Co+2]  inhibited
4  O=S(=O)([O-])[O-].[Zn+2]  inhibited

Next up:
Exam item: Value lookup for Inhibition of FLOD-G activity by metal ion; key = "[Cl][Hg][Cl]"
Marked response: inhibited
